- assaySummary: Cmax in cynomolgus monkey at 1 mg/kg, po measured after 24 or 72 hrs
- Format: ADME, organism-based, Macaca fascicularis
- Set-up: dose 1 mg/kg, route oral
- studyConditions: in vivo
readoutKind: Cmax (nM)

The compound listed as Cc1ncncc1-c1nc2cc(F)c(F)cc2n1C1CC1 shows Cmax equal to 1260

a: N#Cc1ccc2nc(-c3cncnc3C(F)(F)F)n(C3CC3)c2n1
b: N#Cc1ccc2nc(-c3cncnc3C(F)F)n(C3CC3)c2n1
c: N#Cc1ccc2nc(-c3cncnc3C(F)F)n(C3CC3)c2c1
d: Fc1cc2nc(-c3cncnc3C(F)(F)F)n(C3CC3)c2cc1F
e: Fc1cc2nc(-c3cncnc3C(F)F)n(C3CC3)c2cc1F
List items by Cmax in falling order. Give the order by naming the labels one after another as requested.
b, a, c, e, d
(b: 2880 nM, a: 1680 nM, c: 1000 nM, e: 620 nM, d: 410 nM)
